Test: Anesthetic effects in rats, bolus IV (LORR model of general anesthesia)
Assay type: in vivo, rat
Details: male, Sprague-Dawley, rat, in vivo, read-out: MTD (maximum tolerated dose)
# MTD values compiled below
Write the value in mg/kg as a bare number.

[[record]]
compound = "CC[C@@H](C)c1cccc(C(C)C)c1O [Compound 1, (R)-(−)-2-sec-butyl-6-isopropylphenol]"
outcome_measure = "MTD"
readout_number = 14


Now for the compound whose MTD we want.
-- ask # return recorded MTD for entry CC[C@H](C)c1cccc(C(C)C)c1O [(S)-(+)-2-sec-butyl-6-isopropylphenol]
-- reply 21
